# credit: PubChem BioAssay (NCI)

Test: NCI Yeast Anticancer Drug Screen. Data for the mlh1 rad18 strain (AID 175)
Conditions: S. cerevisiae mlh1 rad18 strain growth inhibition; at 5.0 µM (retest, dose inferred, filed as 0.5)
This is part of a sample that, as a whole, favours compounds with a hit. Of some 79,000 tested, about 15% had one in any assay. The source made the active and inactive calls. Cut-off read from the data, not from the text of the source: active = growth inhibition above about 70%; inactive = the rest.
Output constraint: value belongs to active, inactive

[in] Kindly provide the recorded test outcome for the following molecule: C#CC(NCCC(C)CC(C)(C)C)C(C)C (stereo not given)
[out] inactive

[in] Kindly provide the recorded test outcome for the following molecule: CSc1ncccc1C(=O)[O][Sn]([c]1ccccc1)([c]1ccccc1)[c]1ccccc1
[out] active

[in] Kindly provide the recorded test outcome for the following molecule: OC(CNc1ccnc2cc(Cl)ccc12)CNc1ccnc2cc(Cl)ccc12
[out] inactive

[in] Kindly provide the recorded test outcome for the following molecule: Cc1cccc(C)c1N1C(=O)C(=O)C(c2nc3ccccc3s2)/C(=N/NC(=O)c2ccccc2O)C1=O (stereo not given)
[out] inactive

[in] Kindly provide the recorded test outcome for the following molecule: O=C(Nc1ccccc1)c1ccc(Cl)cc1Cl
[out] inactive

[in] Kindly provide the recorded test outcome for the following molecule: O=C(c1cccc(Cl)c1)c1ccc2ccccc2c1C(=O)O
[out] inactive

[in] Kindly provide the recorded test outcome for the following molecule: CCC(c1ccc(O)c(C2CCCCC2)c1)C(CC)c1ccc(OC(=O)c2ccccc2)c(C2CCCCC2)c1 (stereo not given)
[out] inactive

[in] Kindly provide the recorded test outcome for the following molecule: CCOc1ccc2c(c1)nc1ccccc1[n+]2CC
[out] inactive

[in] Kindly provide the recorded test outcome for the following molecule: O=C(c1ccc([N+](=O)[O-])cc1)N1CCCSC1=S
[out] inactive

[in] Kindly provide the recorded test outcome for the following molecule: O=S(=O)(c1ccc(OCC(O)COc2ccc(S(=O)(=O)c3ccc(OCC4CO4)cc3)cc2)cc1)c1ccc(OCC2CO2)cc1 (stereo not given)
[out] inactive

[in] Kindly provide the recorded test outcome for the following molecule: O=c1cc(CI)oc2ccccc12
[out] inactive

[in] Kindly provide the recorded test outcome for the following molecule: CC(=O)OC1C(C)OC(OC(=O)C2CCC3C(C2)OC2(CC(OC(=O)/C=C/c4ccccc4)C(C)CO2)C32CO2)C(OC2OC(C)C(O)C(OC(C)=O)C2O)C1O (stereo not given)
[out] inactive

[in] Kindly provide the recorded test outcome for the following molecule: CCCCCCCCC1CCNCC1
[out] inactive

[in] Kindly provide the recorded test outcome for the following molecule: Cc1ccnc(NC(c2ccccc2)c2ccc3cccnc3c2O)c1 (stereo not given)
[out] inactive

[in] Kindly provide the recorded test outcome for the following molecule: O=C(O)c1c2c(cc3c1CC1(Cc4cc5c(cc4C1=O)CCC5)C3)CCC2 (stereo not given)
[out] inactive
